# TESTED_SYSTEM: FGFR2 (Homo sapiens (Human), UniProt P21802)
# Sequence (P21802 22-821): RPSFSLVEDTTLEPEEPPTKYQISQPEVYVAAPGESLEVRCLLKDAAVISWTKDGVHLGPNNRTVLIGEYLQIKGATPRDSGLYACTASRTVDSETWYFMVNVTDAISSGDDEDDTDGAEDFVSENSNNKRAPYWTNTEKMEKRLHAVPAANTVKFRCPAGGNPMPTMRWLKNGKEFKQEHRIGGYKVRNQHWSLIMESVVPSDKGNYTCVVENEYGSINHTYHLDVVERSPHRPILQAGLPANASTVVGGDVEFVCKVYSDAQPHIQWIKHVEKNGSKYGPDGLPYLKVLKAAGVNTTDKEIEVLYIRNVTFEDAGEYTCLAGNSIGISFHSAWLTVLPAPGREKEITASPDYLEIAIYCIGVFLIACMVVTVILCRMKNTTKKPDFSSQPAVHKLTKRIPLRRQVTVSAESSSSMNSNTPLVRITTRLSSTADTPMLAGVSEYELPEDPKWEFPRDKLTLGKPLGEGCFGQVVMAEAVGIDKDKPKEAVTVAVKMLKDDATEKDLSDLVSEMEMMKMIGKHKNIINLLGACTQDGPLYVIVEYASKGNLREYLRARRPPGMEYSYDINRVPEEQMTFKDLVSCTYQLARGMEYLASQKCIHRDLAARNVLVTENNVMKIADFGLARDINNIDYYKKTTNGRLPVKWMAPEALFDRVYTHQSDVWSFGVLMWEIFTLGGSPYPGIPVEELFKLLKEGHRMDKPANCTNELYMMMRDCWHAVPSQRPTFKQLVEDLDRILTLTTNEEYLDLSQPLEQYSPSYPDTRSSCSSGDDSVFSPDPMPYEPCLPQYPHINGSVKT
# PROCEDURE_SUMMARY: Enzyme binding assay (KINOMEscan)
# SETTINGS: DiscoveRx, pKd = -log Kd (M)
Kd overview

See these solved cases before continuing.
COc1cc(OC)c2c(c1)N(c1ccc3ncc(-c4cnn(C)c4)cc3n1)CCN(C(C)C)C2 :: 9.33e-07 M
COc1cc(O)c2c(c1)N(c1ccc3ncc(-c4cnn(C)c4)cc3c1)CCN(C(C)C)C2 :: > 3.02e-06 M
COc1cc(OC)c2c(c1)N(c1ccc3ncn(-c4cnn(C)c4)c(=O)c3c1)CCN(C(C)C)C2 :: > 3.02e-06 M
COc1cc(OC)c2c(c1)N(c1ccc3ncc(-c4cnn(C)c4)nc3n1)CCN(C(C)C)C2 :: > 1e-06 M
COc1cc(OC)c2c(c1)N(c1ccc3ncc(-c4cnn(C)c4)cc3c1)CCN(C)C2 :: > 3.02e-06 M

# next molecule below
Incoming: # return recorded Kd for input COc1cc(OC)c2c(c1)N(c1ccc3ncc(-c4cnn(C)c4)cc3c1)CCN(C(C)C)C2
Outgoing: 1.86e-06 M
